Details: in acetone, 283.15 K

{"Compound string": "O=C(O)c1cccc(Cl)c1C(=O)c1ccccc1", "solubility (mole fraction)": 0.00204}
{"Compound string": "O=C1c2ccccc2C(=O)c2c(Cl)cccc21", "solubility (mole fraction)": 0.00336}

###

The entries below come with measured solubility (mole fraction) values attached.
Details: in 1,4-dioxane, 303.15 K
Metric: solubility (mole fraction)

{"Compound string": "O=C(O)c1cccc(Cl)c1C(=O)c1ccccc1", "Metric": "solubility (mole fraction)", "Result number": 0.034}
{"Compound string": "O=C1c2ccccc2C(=O)c2c(Cl)cccc21", "Metric": "solubility (mole fraction)", "Result number": 0.00691}

###

Settings: in 1,4-dioxane, 293.15 K

{"Compound string": "O=C(O)c1cccc(Cl)c1C(=O)c1ccccc1", "solubility (mole fraction)": 0.0281}
{"Compound string": "O=C1c2ccccc2C(=O)c2c(Cl)cccc21", "solubility (mole fraction)": 0.00547}

###

Details: in ethyl acetate, 318.15 K

{"Compound string": "O=C(O)c1cccc(Cl)c1C(=O)c1ccccc1", "solubility (mole fraction)": 0.0197}

###

Conditions: in 1,4-dioxane, 278.15 K
Metric: solubility (mole fraction)

{"Compound string": "O=C1c2ccccc2C(=O)c2c(Cl)cccc21", "Result number": 0.00373}
{"Compound string": "O=C(O)c1cccc(Cl)c1C(=O)c1ccccc1", "Result number": 0.021}

###

Settings: in ethyl acetate, 308.15 K
The entries below come with measured solubility (mole fraction) values attached.
Metric: solubility (mole fraction)

{"Compound string": "O=C1c2ccccc2C(=O)c2c(Cl)cccc21", "Result number": 0.00913}
{"Compound string": "O=C(O)c1cccc(Cl)c1C(=O)c1ccccc1", "Result number": 0.0146}

###

The entries below come with measured solubility (mole fraction) values attached.
Conditions: in ethyl acetate, 298.15 K

{"Compound string": "O=C(O)c1cccc(Cl)c1C(=O)c1ccccc1", "solubility (mole fraction)": 0.011}
{"Compound string": "O=C1c2ccccc2C(=O)c2c(Cl)cccc21", "solubility (mole fraction)": 0.0069}

###

Settings: in acetone, 318.15 K

{"Compound string": "O=C(O)c1cccc(Cl)c1C(=O)c1ccccc1", "solubility (mole fraction)": 0.00432}

###

Settings: in toluene, 288.15 K
Metric: solubility (mole fraction)

{"Compound string": "O=C1c2ccccc2C(=O)c2c(Cl)cccc21", "Result number": 0.0122}

###

Conditions: in toluene, 308.15 K
Metric: solubility (mole fraction)

{"Compound string": "O=C1c2ccccc2C(=O)c2c(Cl)cccc21", "Result number": 0.0175}

###

Settings: in toluene, 313.15 K

{"Compound string": "O=C1c2ccccc2C(=O)c2c(Cl)cccc21", "solubility (mole fraction)": 0.019}
